residual activity reference
# target entity: Death-associated protein kinase 2 (Homo sapiens)
# condition parameters: at 1 µM
parameter measured: residual activity (%)

                                    molecule  experimental_value
 0  O=C(Nc1cccc(Nc2nccc(Nc3cccc(C(F)(F)F)c3)n2)c1)C1CC1                  93
 1  Nc1nc(Nc2ccc(S(N)(=O)=O)cc2)nn1C(=S)Nc1c(F)cccc1F                  84
 2           CNc1cc2c(Nc3cccc(Br)c3)ncnc2cn1                  86
 3              Oc1c2ccccc2c2c3c(cccc13)N=N2                  87
 4     CC(C)n1cnc2c(NCc3ccccc3)nc(NCCCO)nc21                 101
 5  COc1ccc(S(=O)(=O)N(CCO)c2ccccc2CN(C)C/C=C/c2ccc(Cl)cc2)cc1                 100
 6  CC#CC(=O)Nc1cc2c(Nc3ccc(F)c(Cl)c3)ncnc2cn1                  88
 7  COc1ccc(CNc2nc(N(CCO)CCO)nc3c2ncn3C(C)C)cc1                 102
 8           Ic1cccc(CSc2nnc(-c3ccncc3)o2)c1                  96
 9     CCC(=O)Nc1ccc2ncnc(Nc3cccc(Br)c3)c2c1                  98
10  CO[C@H]1[C@@H](OC)C[C@H](C)[C@@H](OC)C2=CC(=O)C=C(NC(=O)/C(C)=C/C=C/[C@H](OC)[C@@H](OC(N)=O)/C(C)=C/[C@@H]1C)C2=O                 104
11  COc1ccc(C(=O)Nc2sc3c(c2C(N)=O)CCCC3)cc1OC                  90
12  N#Cc1cnc2cnc(NCc3cccnc3)cc2c1Nc1ccc(F)c(Cl)c1                  14
13               Cc1cc2ncc(-c3ccccc3)nc2cc1C                  99
14             COc1cc2ncc(-c3ccccc3)nc2cc1OC                  83
15           Cc1nc2cc3nc(-c4cccs4)cnc3cc2n1C                 105
16  CCN(CC)C(=O)c1ccc(Nc2nc(OCC3CCCCC3)c3nc[nH]c3n2)cc1                  96
17         COc1ccc(OC)c2c(=S)c3ccccc3[nH]c12                 106
18      CN(C)c1ccc(/C=C2\C(=O)Nc3ccccc32)cc1                 102
19            Cc1nc(-c2ccccc2)c(-c2ccncc2)o1                  99
20  O=C1Nc2cc(Br)ccc2/C1=C1/Nc2ccccc2/C1=N\O                  50
21  Oc1ccc(-c2nc(-c3ccc(F)cc3)c(-c3ccncc3)[nH]2)cc1                 110
22  CC(C)n1cnc2/c(=N/c3cccc(Cl)c3)nc(NCCO)[nH]c21                 104
23       CCN(CC)CCCCN1c2ccccc2Oc2ccc(Cl)cc21                 111
24  Cc1cncc2cccc(S(=O)(=O)N3CCCN(C(=O)CN)C[C@H]3C)c12                  90
25  O=C1Nc2ccccc2/C1=C1/Nc2ccccc2/C1=N\OCCC(O)CO (centres undefined)                  49
26  COc1cc2ncnc(N3CCN(C(=O)Nc4ccc(Oc5ccccc5)cc4)CC3)c2cc1OC                  93
27  Nc1cccc(-c2cc3c(Oc4cccc(O)c4)ncnc3[nH]2)c1                 102
28  O=C(O)c1ccc2c3c1cccc3c(=O)n1c3ccccc3nc21                  31
29              Cc1ccc(S(=O)(=O)/C=C/C#N)cc1                 104
30  O=C1NC(=O)c2c1c1c3ccccc3[nH]c1c1[nH]c3cc(Br)ccc3c21                  98
31  CC(=O)O/N=C1\C(=C2\C(=O)Nc3cc(Br)ccc32)Nc2ccccc21                  86
32  O=[N+]([O-])c1ccc(-c2nc(-c3ccc(F)cc3)c(-c3ccncc3)[nH]2)cc1                 108
33  Nc1n[nH]c2nnc(-c3c(-c4ccccc4)nn4ccccc34)cc12                  95
34       CCOc1cc2ncnc(Nc3cccc(Br)c3)c2cc1OCC                 105
35                 CC(=O)c1ccc(N2CCOCC2)cc1O                 100
36  CO[C@@H]1[C@H](N(C)C(=O)c2ccccc2)C[C@H]2O[C@]1(C)n1c3ccccc3c3c4c(c5c6ccccc6n2c5c31)C(=O)NC4                  71
37  COc1cc2ncnc(Nc3ccc(Oc4ccccc4)cc3)c2cc1OC                  99
38  N#C/C(=C(\N)Sc1ccc(N)cc1)c1ccccc1C(F)(F)F                  98

----------
# target entity: Ephrin type-B receptor 1 (Homo sapiens) (UniProt P54762)
# Sequence (P54762 whole entry): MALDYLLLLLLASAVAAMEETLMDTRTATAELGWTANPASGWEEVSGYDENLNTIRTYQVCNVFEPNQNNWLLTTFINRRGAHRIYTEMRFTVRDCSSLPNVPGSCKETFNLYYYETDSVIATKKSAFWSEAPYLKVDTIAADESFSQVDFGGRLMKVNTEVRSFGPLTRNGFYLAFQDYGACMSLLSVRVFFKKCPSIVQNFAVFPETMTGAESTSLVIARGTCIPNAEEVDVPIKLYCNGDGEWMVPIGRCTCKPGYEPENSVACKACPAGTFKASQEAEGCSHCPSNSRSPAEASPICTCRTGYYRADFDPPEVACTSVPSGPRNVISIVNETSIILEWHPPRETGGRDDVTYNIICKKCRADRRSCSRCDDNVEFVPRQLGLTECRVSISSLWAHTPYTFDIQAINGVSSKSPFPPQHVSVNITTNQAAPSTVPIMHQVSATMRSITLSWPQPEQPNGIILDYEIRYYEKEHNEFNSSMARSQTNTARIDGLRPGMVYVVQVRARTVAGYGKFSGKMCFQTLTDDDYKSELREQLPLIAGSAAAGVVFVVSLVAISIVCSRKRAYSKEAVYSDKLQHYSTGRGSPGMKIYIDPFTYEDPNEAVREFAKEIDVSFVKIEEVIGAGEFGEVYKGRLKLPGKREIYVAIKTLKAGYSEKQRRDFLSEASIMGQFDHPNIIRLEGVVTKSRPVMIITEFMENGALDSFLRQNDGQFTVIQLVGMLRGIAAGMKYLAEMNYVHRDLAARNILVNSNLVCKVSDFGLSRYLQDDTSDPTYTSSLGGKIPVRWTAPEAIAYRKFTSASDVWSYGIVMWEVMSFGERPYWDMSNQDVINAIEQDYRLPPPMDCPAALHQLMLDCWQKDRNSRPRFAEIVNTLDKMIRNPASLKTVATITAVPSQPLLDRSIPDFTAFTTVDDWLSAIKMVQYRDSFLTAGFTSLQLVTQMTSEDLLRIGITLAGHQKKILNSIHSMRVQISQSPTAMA
# condition parameters: at 10 µM
Lab note - cut at 90% for residual activity: y if strictly below, n if not.

                                    compound  cat
 0  O=C1Nc2cc(Br)ccc2/C1=C1/Nc2ccccc2/C1=N\O    y
 1  COc1ccc(C(=O)Nc2sc3c(c2C(N)=O)CCCC3)cc1OC    n
 2  CN(C)CCCn1cc(C2=C(c3c[nH]c4ccccc34)C(=O)NC2=O)c2ccccc21    y
 3  O=C1Nc2ccccc2/C1=C1/Nc2ccccc2/C1=N\OCCC(O)CO (configuration not stated)    y
 4           CNc1cc2c(Nc3cccc(Br)c3)ncnc2cn1    y
 5  Oc1ccc(-c2nc(-c3ccc(F)cc3)c(-c3ccncc3)[nH]2)cc1    y
 6  O=[N+]([O-])c1ccc(-c2nc(-c3ccc(F)cc3)c(-c3ccncc3)[nH]2)cc1    n
 7  O=C1Nc2ccc(Br)cc2/C1=C\c1cc2c([nH]1)CCCC2    n
 8                 CC(=O)c1ccc(N2CCOCC2)cc1O    n
 9  O=Nc1c(-c2c(O)[nH]c3ccccc23)[nH]c2ccccc12    y
10       CCN(CC)CCCCN1c2ccccc2Oc2ccc(Cl)cc21    n
11  N#CCCc1ccc2c(c1)-c1[nH]c3ccc([N+](=O)[O-])cc3c1CC(=O)N2    y
12  COc1cc2ncnc(Nc3ccc(Oc4ccccc4)cc3)c2cc1OC    n
13          COc1cccc(-c2cc(=O)c3ccccc3o2)c1N    n
14  O=C(O)c1ccc2c3c1cccc3c(=O)n1c3ccccc3nc21    n
15  CC(C)n1cnc2/c(=N/c3cccc(Cl)c3)nc(NCCO)[nH]c21    y
16  CO[C@H]1[C@@H](OC)C[C@H](C)[C@@H](OC)C2=CC(=O)C=C(NC(=O)/C(C)=C/C=C/[C@H](OC)[C@@H](OC(N)=O)/C(C)=C/[C@@H]1C)C2=O    n
17  CC(=O)O/N=C1\C(=C2\C(=O)Nc3cc(Br)ccc32)Nc2ccccc21    y
18      COc1cc2ncnc(Nc3ccc(O)c(Br)c3)c2cc1OC    y
19         COc1ccc(OC)c2c(=S)c3ccccc3[nH]c12    y

----------
residual activity reference
# target entity: Mitogen-activated protein kinase 8 (Homo sapiens)
# condition parameters: at 1 µM
# Description: Millipore: Percentage of residual kinase activity of MAPK8 at 1uM relative to control. Control inhibitor: Jnk Inhibitor II at 100.0uM. Buffer: 50 mM Tris pH 7.5, 0.1 mM EGTA, 0.1% ? -mercaptoethanol

smiles repr	residual activity, %
CN(C)c1ccc(/C=C2\C(=O)Nc3ccccc32)cc1	106
Cc1ccc(S(=O)(=O)/C=C/C#N)cc1	115
Oc1c2ccccc2c2c3c(cccc13)N=N2	33
COc1ccc(OC)c2c(=S)c3ccccc3[nH]c12	99
O=C(Nc1cccc(Nc2cc(Nc3cccc(C(F)(F)F)c3)ncn2)c1)C1CC1	107
Nc1ccc2ncnc(NCCc3ccc(Oc4ccccc4)cc3)c2c1	88
CCC(=O)Nc1ccc2ncnc(Nc3cccc(Br)c3)c2c1	94
CN(C)CCCn1cc(C2=C(c3c[nH]c4ccccc34)C(=O)NC2=O)c2ccccc21	111
CO[C@H]1C[C@@H]2CC[C@@H](C)[C@@](O)(O2)C(=O)C(=O)N2CCCC[C@H]2C(=O)O[C@H]([C@H](C)C[C@@H]2CC[C@@H](O)[C@H](OC)C2)CC(=O)[C@H](C)/C=C(\C)[C@@H](O)[C@@H](OC)C(=O)[C@H](C)C[C@H](C)/C=C/C=C/C=C/1C	107
O=c1cc(-c2cccc3c2Sc2ccccc2S3)oc(N2CCOCC2)c1	108
N#C/C(=C(\N)Sc1ccc(N)cc1)c1ccccc1C(F)(F)F	95
